Data provenance: ChEMBL document CHEMBL5625225

System: Stimulator of interferon genes protein (Homo sapiens), Q86WV6 [G230A,R293Q]; note: test concentration or dose not given here
Sequence (Q86WV6 whole entry G230A/R293Q): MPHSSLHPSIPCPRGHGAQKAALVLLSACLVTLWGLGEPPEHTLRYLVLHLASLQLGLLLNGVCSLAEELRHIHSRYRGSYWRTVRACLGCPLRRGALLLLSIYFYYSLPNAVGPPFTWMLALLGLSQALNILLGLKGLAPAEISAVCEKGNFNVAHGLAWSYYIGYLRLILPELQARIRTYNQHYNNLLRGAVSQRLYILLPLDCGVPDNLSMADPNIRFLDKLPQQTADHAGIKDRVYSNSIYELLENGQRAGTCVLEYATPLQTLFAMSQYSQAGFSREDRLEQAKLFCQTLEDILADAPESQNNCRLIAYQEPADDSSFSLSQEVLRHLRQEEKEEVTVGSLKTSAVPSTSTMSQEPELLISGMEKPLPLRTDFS
test-parameters: filed as agonist
metric-name: ΔTm (°C)
Give the number; °C is assumed, so skip it.

1. Nc1nc2c(ncn2[C@H]2C[C@@H]3OP(=O)(O)/C=C/[C@H]4O[C@@H](n5cnc6c(N)ncnc65)[C@H](F)[C@@H]4OP(=O)(O)OC[C@H]3O2)c(=O)[nH]1 : 11.4

Fill in the recorded ΔTm for this molecule, with Stimulator of interferon genes protein (Homo sapiens), Q86WV6 [G230A,R293Q] as test system: Nc1nc2c(ncn2[C@@H]2O[C@@H]3COP(=O)(O)O[C@H]4C[C@H](n5cnc6c(N)ncnc65)O[C@@H]4/C=C/P(=O)(O)O[C@H]3[C@H]2F)c(=O)[nH]1 11.9

Fill in the recorded ΔTm for this molecule, with Stimulator of interferon genes protein (Homo sapiens), Q86WV6 [G230A,R293Q] as test system: Nc1ncnc2c1ncn2[C@@H]1O[C@@H]2COP(=O)(O)O[C@H]3C[C@H](n4cnc5c(N)ncnc54)O[C@@H]3/C=C/P(=O)(O)O[C@H]2[C@H]1F 8.2

Fill in the recorded ΔTm for this molecule, with Stimulator of interferon genes protein (Homo sapiens), Q86WV6 [G230A,R293Q] as test system: Nc1nc2c(ncn2[C@H]2C[C@@H]3OP(=O)(O)/C=C/[C@H]4O[C@@H](n5cnc6c(N)ncnc65)C[C@@H]4OP(=O)(O)OC[C@H]3O2)c(=O)[nH]1 4.5

Fill in the recorded ΔTm for this molecule, with Stimulator of interferon genes protein (Homo sapiens), Q86WV6 [G230A,R293Q] as test system: Nc1nc2c(ncn2[C@@H]2O[C@@H]3/C=C/P(=O)(O)O[C@H]4[C@@H](F)[C@H](n5cnc6c(N)ncnc65)O[C@@H]4COP(=O)(O)O[C@H]3[C@H]2F)c(=O)[nH]1 15.2

Fill in the recorded ΔTm for this molecule, with Stimulator of interferon genes protein (Homo sapiens), Q86WV6 [G230A,R293Q] as test system: Nc1ncnc2c1ncn2[C@@H]1O[C@@H]2/C=C\P(=O)(O)O[C@H]3[C@@H](F)[C@H](n4cnc5c(N)ncnc54)O[C@@H]3COP(=O)(O)O[C@H]2[C@H]1F 11.3
